experiment: Solubility testing in sodium phosphate buffer; type: physicochemical; conditions: thermodynamic from solid; aqueous buffer, 0.02 molar dibasic sodium phosphate; sonicated, undissolved solid weighed
quantity.measured: solubility (mg/mL)

O=C(O)/C=N\c1ccc(O)c(C(=O)O)c1 = 11
O=C(O)/C=N/c1ccc(C(=O)O)c(O)c1 = 17.3
CCOC(=O)/C=N\c1ccc(O)c(C(=O)O)c1 = 12
CCOC(=O)C=Nc1ccc(C(=O)O)c(O)c1 = 10.2
CCOC(=O)/C=N\c1ccc(O)c(C(=O)OCC)c1 [Formula Ia-ii, ethyl 5-ethylglyoxyliminosalicylate] = 0.13

(A) COc1cc(/C=N\c2ccc(O)c(C(=O)O)c2)ccc1O
(B) COc1cc(/C=N\c2ccc(C(=O)O)c(O)c2)ccc1O
**Query** Which value of solubility is smaller, the one for A or the one for B ? State the label of the item chosen.
**Result** A
